Answer each item with its documented glycan array binding signal (z-score).
- STUDY SYSTEM: Gal(b1-4)GalNAc(b1-3)[Fuc(a1-2)]Gal(b1-4)GlcNAc
- METHOD DESCRIPTION: glycan array binding signal (z-score within array); higher = stronger binding
- COND: glycan notation: IUPAC condensed, linker removed
Many of the other results were omitted from the sample, so the strongest signals are more common in it than they were.
No unit in the answer, only the number.

Which glycan array binding signal (z-score) is listed for RNase 1 (Homo sapiens) (protein) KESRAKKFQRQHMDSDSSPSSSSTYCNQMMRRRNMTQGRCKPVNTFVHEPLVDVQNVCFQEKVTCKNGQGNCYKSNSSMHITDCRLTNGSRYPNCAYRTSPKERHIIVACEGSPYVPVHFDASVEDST ? -0.218

Bench note: what glycan array binding signal (z-score) did BDCA2 ex-domain (Homo sapiens) (protein) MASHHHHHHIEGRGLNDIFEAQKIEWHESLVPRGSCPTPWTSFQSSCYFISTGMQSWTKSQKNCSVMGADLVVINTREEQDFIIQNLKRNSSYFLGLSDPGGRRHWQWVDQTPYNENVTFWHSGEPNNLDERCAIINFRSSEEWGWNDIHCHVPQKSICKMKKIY show? -0.375

Give its glycan array binding signal (z-score) value. Item: Surfactant Protein D (rat); Neck + Carbohydrate Recognition Domain (NCRD) (Rattus norvegicus) (protein) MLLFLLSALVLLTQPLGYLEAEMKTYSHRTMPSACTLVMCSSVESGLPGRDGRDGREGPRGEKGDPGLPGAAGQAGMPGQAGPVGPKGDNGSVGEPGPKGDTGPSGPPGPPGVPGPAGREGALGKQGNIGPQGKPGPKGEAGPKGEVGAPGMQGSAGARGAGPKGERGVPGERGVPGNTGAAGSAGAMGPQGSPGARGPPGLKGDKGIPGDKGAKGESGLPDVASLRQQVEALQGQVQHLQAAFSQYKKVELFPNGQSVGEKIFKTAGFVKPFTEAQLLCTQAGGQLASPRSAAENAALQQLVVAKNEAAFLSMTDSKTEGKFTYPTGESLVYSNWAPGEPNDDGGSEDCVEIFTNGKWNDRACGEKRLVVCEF -0.02
